Test system: HT29 colon
method.description: NCI-60 one-dose screen, 48 h
details: 10 µM
Compounds without any hit were thinned out: in the full panel of roughly 83,000, 20% have a hit. Active and inactive are the calls of the source. The calls were made as follows: active = growth percent below 10; inactive = the rest.
Parameter call: string, one of true (active), false (inactive)

Below are worked cases with known answers.
compound	qualitative.label
Cc1ccc(S(=O)(=O)c2nc(-c3ccccc3)oc2S(=O)(=O)CC(=O)N2CCCC2)cc1	true
COc1ccc(C(=O)/C=C/c2cc(F)cc(C(F)(F)F)c2)cc1S(N)(=O)=O	true
CCOC(=O)C(Cc1ccccc1)N1C(=O)/C(=C/N2N=C(c3ccc(OC)cc3)CC2c2ccc3ccccc3c2)SC1=S (centres undefined)	true

We now examine a further compound.
query: Could you please tell me the result logged for COc1cnc2c(c1)C(=O)c1c-2n(CCCNC(C)C)c(=O)c2cc(OC)c(OC)cc12 in this assay?
result: false
